Record form. Attribute: Ratio IC50. Fill in for each entry.
# Species: Homo sapiens
# procedure.summary: Selectivity index, ratio of IC50 for inhibition of VEGFR2 (unknown origin) to IC50 for inhibition of TNNI3K (unknown origin)
Give bare numbers.

Look over these answered cases.
O=C(Nc1ccc(Oc2ccnc3ccccc23)cc1)Nc1cccc(C(F)(F)F)c1 ... 0.08
CNc1cc(Oc2c(Cl)cc(NC(=O)Nc3cccc(C(F)(F)F)c3)cc2Cl)ncn1 ... 40
CNc1cc(Oc2ccc(NC(=O)Nc3cccc(C(F)(F)F)c3)c(F)c2)ncn1 ... 0.1
CCNc1cc(Oc2ccc(NC(=O)Nc3cccc(C(F)(F)F)c3)cc2)ncn1 ... 0.64

Could you report Ratio IC50 for every entry in the following list?
1. CNc1cc(Oc2ccc(NC(=O)Nc3cccc(C)c3)cc2)ncn1
2. CNc1cc(Oc2c(C)cc(NC(=O)Nc3cccc(C(F)(F)F)c3)c3ccccc23)ncn1
3. CNc1cc(Oc2ccc(NC(=O)Nc3cccc(C(C)F)c3)cc2)ncn1 (configuration not stated)

Output line:
1. 0.63
2. 5
3. 1

---

# target.of.assay: Voltage-gated inwardly rectifying potassium channel KCNH2 (Homo sapiens, UniProt Q12809)
# Sequence (Q12809 whole entry): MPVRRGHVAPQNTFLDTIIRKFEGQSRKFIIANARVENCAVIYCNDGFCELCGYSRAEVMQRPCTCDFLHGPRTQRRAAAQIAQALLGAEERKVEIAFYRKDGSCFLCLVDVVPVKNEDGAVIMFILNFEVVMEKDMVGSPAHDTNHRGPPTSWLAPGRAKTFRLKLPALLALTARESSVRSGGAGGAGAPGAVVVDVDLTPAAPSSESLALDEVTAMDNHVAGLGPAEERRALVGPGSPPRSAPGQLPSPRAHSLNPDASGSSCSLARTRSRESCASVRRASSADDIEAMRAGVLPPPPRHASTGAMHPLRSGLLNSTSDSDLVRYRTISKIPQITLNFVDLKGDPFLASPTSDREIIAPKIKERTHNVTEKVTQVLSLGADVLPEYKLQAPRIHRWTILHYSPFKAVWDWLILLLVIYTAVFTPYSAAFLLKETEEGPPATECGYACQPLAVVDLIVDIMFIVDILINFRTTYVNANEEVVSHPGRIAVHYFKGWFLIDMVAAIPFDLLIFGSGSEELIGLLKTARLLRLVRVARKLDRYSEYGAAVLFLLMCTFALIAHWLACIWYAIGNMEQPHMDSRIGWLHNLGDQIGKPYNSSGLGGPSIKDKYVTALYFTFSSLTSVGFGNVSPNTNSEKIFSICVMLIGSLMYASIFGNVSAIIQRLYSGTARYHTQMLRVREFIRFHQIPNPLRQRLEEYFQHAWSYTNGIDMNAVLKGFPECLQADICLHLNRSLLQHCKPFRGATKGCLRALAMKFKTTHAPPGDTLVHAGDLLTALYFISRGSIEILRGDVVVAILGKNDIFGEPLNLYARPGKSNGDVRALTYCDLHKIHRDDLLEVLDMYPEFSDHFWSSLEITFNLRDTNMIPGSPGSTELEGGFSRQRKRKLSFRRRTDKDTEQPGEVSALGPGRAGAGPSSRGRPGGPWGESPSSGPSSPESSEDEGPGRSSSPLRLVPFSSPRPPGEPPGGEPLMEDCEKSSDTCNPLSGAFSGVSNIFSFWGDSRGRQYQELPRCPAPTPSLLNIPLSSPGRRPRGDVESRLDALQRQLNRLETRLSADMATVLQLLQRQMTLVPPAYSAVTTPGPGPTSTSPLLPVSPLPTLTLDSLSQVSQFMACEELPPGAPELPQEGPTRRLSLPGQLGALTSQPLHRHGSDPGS
# procedure.summary: Inhibition of human ERG expressed in HEK293 cells
pIC50: −log10 of the molar value.
measure: pIC50

Input line: Value lookup for pIC50; key = `CNc1cc(Oc2c(Cl)cc(NC(=O)Nc3cccc(C(F)(F)F)c3)cc2Cl)ncn1`
Output line: < 4.50

---

# target.of.assay: Serine/threonine-protein kinase TNNI3K (Homo sapiens)
# procedure.summary: Inhibition of TNNI3K (unknown origin)
measure: pIC50
Answers are plain numbers, as −log10 of the molar value.

O=C(Nc1ccc(Oc2cc(Nc3cccc(CN4CCCC4)c3)ncn2)cc1)Nc1cccc(C(F)(F)F)c1 ... 8.00
CC(C)CNc1cc(Oc2ccc(NC(=O)Nc3cccc(C(F)(F)F)c3)cc2)ncn1 ... 7.30
Nc1cc(Oc2ccc(NC(=O)Nc3cccc(C(F)(F)F)c3)cc2)ncn1 ... 7.60

Could you report pIC50 for every entry in the following list?
1. COc1cc2ncnc(Oc3ccc(NC(=O)Nc4cccc(C(F)(F)F)c4)cc3)c2cc1OC
2. O=C(Nc1ccc(Oc2cc(NCCO)ncn2)cc1)Nc1cccc(C(F)(F)F)c1
3. O=C(Nc1ccc(Oc2ccncc2)cc1)Nc1cccc(C(F)(F)F)c1
4. O=C(Nc1ccc(Oc2ccnc3[nH]ccc23)cc1)Nc1cccc(C(F)(F)F)c1
5. CNc1cc(Oc2ccc(NC(=O)Nc3cccc(C(F)(F)F)c3)c(F)c2F)ncn1

Output line:
1: 7.64; 2: 7.49; 3: 7.30; 4: 7.49; 5: 7.70

---

# target.of.assay: Mitogen-activated protein kinase 14 (Homo sapiens)
# Sequence (Q16539 whole entry): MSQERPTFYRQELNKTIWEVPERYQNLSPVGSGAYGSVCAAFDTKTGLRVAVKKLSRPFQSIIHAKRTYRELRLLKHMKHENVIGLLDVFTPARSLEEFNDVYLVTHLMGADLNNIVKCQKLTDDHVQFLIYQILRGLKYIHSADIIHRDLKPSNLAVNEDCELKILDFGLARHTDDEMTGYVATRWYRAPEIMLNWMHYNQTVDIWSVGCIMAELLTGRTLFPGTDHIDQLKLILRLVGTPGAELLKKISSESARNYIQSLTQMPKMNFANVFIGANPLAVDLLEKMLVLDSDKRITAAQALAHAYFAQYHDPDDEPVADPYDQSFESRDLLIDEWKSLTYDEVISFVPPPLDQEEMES
# procedure.summary: Inhibition of p38alpha (unknown origin)
Record form. Attribute: log10 IC50. Fill in for each entry.
On a log10 scale: recorded IC50, unit µM.

Look over these answered cases.
CNc1cc(Oc2ccc(NC(=O)Nc3cccc(C(F)(F)F)c3)c(F)c2)ncn1 ... -0.40
CNc1cc(Oc2c(Cl)cc(NC(=O)Nc3cccc(C(F)(F)F)c3)cc2Cl)ncn1 ... -0.10
CN(C)c1cc(Oc2ccc(NC(=O)Nc3cccc(C(F)(F)F)c3)cc2)ncn1 ... 0.30
CNc1cc(Oc2ccc(NC(=O)Nc3cccc(C(C)(C)C)c3)cc2)ncn1 ... 0.00

Could you report log10 IC50 for every entry in the following list?
1. COc1cc(Oc2ccc(NC(=O)Nc3cccc(C(F)(F)F)c3)cc2)ncn1
2. COc1ccc2ncnc(Oc3ccc(NC(=O)Nc4cccc(C(F)(F)F)c4)cc3)c2c1
3. CC(C)CNc1cc(Oc2ccc(NC(=O)Nc3cccc(C(F)(F)F)c3)cc2)ncn1
4. CNc1cc(Oc2ccc(NC(=O)Nc3cccc(C(F)(F)F)c3)cc2Cl)ncn1

Output line:
1: 0.10; 2: 0.20; 3: -0.60; 4: -0.10

Could you report log10 IC50 for every entry in the following list?
1. CC(=O)Nc1cc(Oc2ccc(NC(=O)Nc3cccc(C(F)(F)F)c3)cc2)ncn1
2. O=C(Nc1ccc(Oc2ccnc3ccccc23)cc1)Nc1cccc(C(F)(F)F)c1
3. CC(C)Nc1cc(Oc2ccc(NC(=O)Nc3cccc(C(F)(F)F)c3)cc2)ncn1
4. O=C(Nc1ccc(Oc2ncnc3ccccc23)cc1)Nc1cccc(C(F)(F)F)c1
5. CNc1cc(Oc2cc(C)c(NC(=O)Nc3cccc(C(F)(F)F)c3)cc2C)ncn1
6. C[C@H](O)CNc1cc(Oc2ccc(NC(=O)Nc3cccc(C(F)(F)F)c3)cc2)ncn1

Output line:
1. -1.10
2. -1.00
3. -0.40
4. 0.10
5. 0.70
6. -0.49

Could you report log10 IC50 for every entry in the following list?
1. CCCNc1cc(Oc2ccc(NC(=O)Nc3cccc(C(F)(F)F)c3)cc2)ncn1
2. CNc1cc(Oc2c(F)cc(NC(=O)Nc3cccc(C(F)(F)F)c3)cc2F)ncn1

Output line:
[-0.40, -0.30]

Could you report log10 IC50 for every entry in the following list?
1. CNC(=O)c1cc(Oc2ccc(NC(=O)Nc3cccc(C(F)(F)F)c3)cc2)ccn1
2. CC(C)(O)CNc1cc(Oc2ccc(NC(=O)Nc3cccc(C(F)(F)F)c3)cc2)ncn1
3. O=C(Nc1ccc(Oc2cc(Nc3cccc(CN4CCCC4)c3)ncn2)cc1)Nc1cccc(C(F)(F)F)c1
4. CNc1cc(Oc2ccc(NC(=O)Nc3cccc(C(F)F)c3)cc2)ncn1
5. CNc1cc(Oc2ccc(NC(=O)Nc3cccc(C(F)(F)F)c3)cc2F)ncn1
6. O=C(Nc1ccc(Oc2ccncc2)cc1)Nc1cccc(C(F)(F)F)c1
7. CNc1nccc(Oc2ccc(NC(=O)Nc3cccc(C(F)(F)F)c3)cc2)n1
8. CNc1cc(Oc2c(C)cc(NC(=O)Nc3cccc(C(F)(F)F)c3)cc2C)ncn1

Output line:
-0.49
-0.20
-1.30
0.80
0.00
-0.70
-1.30
0.80

---

# Species: Homo sapiens
# procedure.summary: Selectivity index, ratio of IC50 for inhibition of p38alpha (unknown origin) to IC50 for inhibition of TNNI3K (unknown origin)
measure: Ratio IC50
Answers are plain numbers.

Look over these answered cases.
CC(=O)Nc1cc(Oc2ccc(NC(=O)Nc3cccc(C(F)(F)F)c3)cc2)ncn1 ... 4
CCNc1cc(Oc2ccc(NC(=O)Nc3cccc(C(F)(F)F)c3)cc2)ncn1 ... 13
CNc1cc(Oc2c(C)cc(NC(=O)Nc3cccc(C(F)(F)F)c3)c3ccccc23)ncn1 ... 4

Could you report Ratio IC50 for every entry in the following list?
1. CNc1cc(Oc2ccc(NC(=O)Nc3cccc(C(F)(F)F)c3)cc2Cl)ncn1
2. O=C(Nc1ccc(Oc2ccncc2)cc1)Nc1cccc(C(F)(F)F)c1

Output line:
1: 16; 2: 4

---

# target.of.assay: Serine/threonine-protein kinase TNNI3K (Homo sapiens, UniProt Q59H18)
# Sequence (Q59H18 whole entry): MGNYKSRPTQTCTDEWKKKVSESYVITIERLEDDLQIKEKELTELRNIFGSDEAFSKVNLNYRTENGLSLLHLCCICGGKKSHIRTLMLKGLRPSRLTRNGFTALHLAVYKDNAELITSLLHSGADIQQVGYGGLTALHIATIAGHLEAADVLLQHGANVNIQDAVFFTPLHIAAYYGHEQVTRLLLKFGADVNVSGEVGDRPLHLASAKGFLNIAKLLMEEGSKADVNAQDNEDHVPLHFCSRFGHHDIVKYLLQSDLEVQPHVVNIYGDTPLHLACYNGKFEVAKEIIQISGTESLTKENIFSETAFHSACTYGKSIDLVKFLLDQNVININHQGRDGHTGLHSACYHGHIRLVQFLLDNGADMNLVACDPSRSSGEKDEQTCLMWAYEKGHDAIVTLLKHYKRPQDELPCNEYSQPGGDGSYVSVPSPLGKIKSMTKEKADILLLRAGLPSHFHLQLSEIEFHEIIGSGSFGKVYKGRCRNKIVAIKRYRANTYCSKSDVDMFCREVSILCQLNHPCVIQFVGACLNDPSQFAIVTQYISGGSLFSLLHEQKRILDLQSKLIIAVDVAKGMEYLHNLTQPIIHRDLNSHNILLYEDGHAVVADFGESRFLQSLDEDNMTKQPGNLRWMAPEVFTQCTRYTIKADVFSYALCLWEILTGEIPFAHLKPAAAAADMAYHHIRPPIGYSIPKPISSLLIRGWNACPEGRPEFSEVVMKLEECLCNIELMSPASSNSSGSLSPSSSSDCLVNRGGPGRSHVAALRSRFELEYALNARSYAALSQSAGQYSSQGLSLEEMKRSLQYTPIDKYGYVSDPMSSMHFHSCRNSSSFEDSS
# procedure.summary: Inhibition of TNNI3K (unknown origin)
# note: boundary value 80 nM maps to rule not met; IC50 below it maps to rule met

CNc1cc(Oc2ccc(NC(=O)Nc3cccc(C(F)(F)F)c3)c3ccccc23)ncn1 ... rule met

Input line: Is it true that IC50 reported for `O=C(Nc1ccc(Oc2ncnc3[nH]ccc23)cc1)Nc1cccc(C(F)(F)F)c1` is less than 80 nM?
Output line: rule met

Input line: Is it true that IC50 reported for `O=C(Nc1ccc(Oc2ccnc3ccccc23)cc1)Nc1cccc(C(F)(F)F)c1` is less than 80 nM?
Output line: rule met

---

# Species on record: Homo sapiens
# procedure.summary: Selectivity index, ratio of IC50 for inhibition of VEGFR2 (unknown origin) to IC50 for inhibition of TNNI3K (unknown origin)
measure: Ratio IC50
Give bare numbers.

Look over these answered cases.
CCc1cccc(NC(=O)Nc2ccc(Oc3cc(NC)ncn3)cc2)c1 ... 0.65
O=C(Nc1ccc(Oc2cc(O)ncn2)cc1)Nc1cccc(C(F)(F)F)c1 ... 1
CNc1cc(Oc2ccc(NC(=O)Nc3cccc(C(C)(F)F)c3)cc2)ncn1 ... 1
CNc1cc(Oc2cc(C)c(NC(=O)Nc3cccc(C(F)(F)F)c3)cc2C)ncn1 ... 63
CNc1cc(Oc2ccc(NC(=O)Nc3cccc(C(F)(F)F)c3)cc2F)ncn1 ... 0.64
CC(C)Nc1cc(Oc2ccc(NC(=O)Nc3cccc(C(F)(F)F)c3)cc2)ncn1 ... 1.3
CNc1cc(Oc2ccc(NC(=O)Nc3cccc(C(F)(F)F)c3)cc2Cl)ncn1 ... 1
CC(C)CNc1cc(Oc2ccc(NC(=O)Nc3cccc(C(F)(F)F)c3)cc2)ncn1 ... 6.4
CNc1cc(Oc2c(C)cc(NC(=O)Nc3cccc(C(F)(F)F)c3)cc2C)ncn1 ... 40

Continue with the next compound.
Input line: Value lookup for Ratio IC50; key = `O=C(Nc1ccc(Oc2ncnc3ccccc23)cc1)Nc1cccc(C(F)(F)F)c1`
Output line: 0.4

---

# procedure.summary: Permeability of compound incubated for 2 hrs by liquid chromatography analysis
# Format: ADME
# recorded.conditions: read-out: permeability
Label rule, in plain words: Papp at 2 h of 20 ×10⁻⁶ cm/s and up is satisfied, under 20 ×10⁻⁶ cm/s is not satisfied.

Consider the worked cases shown below.
CNc1cc(Oc2ccc(NC(=O)Nc3cccc(C(F)(F)F)c3)cc2)ncn1 ... satisfied
Nc1cc(Oc2ccc(NC(=O)Nc3cccc(C(F)(F)F)c3)cc2)ncn1 ... satisfied
O=C(Nc1ccc(Oc2cc(NCCO)ncn2)cc1)Nc1cccc(C(F)(F)F)c1 ... not satisfied
CNc1cc(Oc2c(Cl)cc(NC(=O)Nc3cccc(C(F)(F)F)c3)cc2Cl)ncn1 ... not satisfied

For the next question, use this molecule.
Input line: Is reported Papp at 2 h greater than or equal to 20 ×10⁻⁶ cm/s here: `CNc1cc(Oc2c(C)cc(NC(=O)Nc3cccc(C(F)(F)F)c3)cc2C)ncn1`
Output line: satisfied

Sourced from ChEMBL document CHEMBL4840354
